- Tested on: Staphylococcus aureus DSM799
- ASSAY_TEXT: Microbial growth curve screening, S. aureus
- Assay type: cell-based
- SETTINGS: 0.1% (w/v), control 2.5 h
# label = Fulfilled if Lag-phase S. aureus >= 30 h else Not fulfilled

TEST_SMILES: CCc1ccc(/C=C/C(=O)c2ccc(N)cc2)cc1
STUDY_TARGET: Staphylococcus aureus DSM799
DISCRETE_LABEL: Not fulfilled
--
TEST_SMILES: Nc1ccc(C(=O)/C=C/c2ccc(OCc3ccccc3)cc2)cc1
STUDY_TARGET: Staphylococcus aureus DSM799
DISCRETE_LABEL: Not fulfilled
--
TEST_SMILES: COc1cc(/C=C/C(=O)c2ccc(N)cc2)ccc1OCc1ccccc1
STUDY_TARGET: Staphylococcus aureus DSM799
DISCRETE_LABEL: Fulfilled
--
TEST_SMILES: Nc1ccccc1C(=O)/C=C/c1ccc([N+](=O)[O-])cc1
STUDY_TARGET: Staphylococcus aureus DSM799
DISCRETE_LABEL: Not fulfilled
--
TEST_SMILES: COc1cc(/C=C/C(=O)c2cccc(N)c2)ccc1OCc1ccccc1
STUDY_TARGET: Staphylococcus aureus DSM799
DISCRETE_LABEL: Fulfilled
--
TEST_SMILES: Nc1cccc(C(=O)/C=C/c2ccc(OCc3ccccc3)cc2)c1
STUDY_TARGET: Staphylococcus aureus DSM799
DISCRETE_LABEL: Fulfilled
--
TEST_SMILES: CCc1ccc(/C=C/C(=O)c2ccccc2N)cc1
STUDY_TARGET: Staphylococcus aureus DSM799
DISCRETE_LABEL: Fulfilled
--
TEST_SMILES: Nc1ccc(C(=O)/C=C/c2ccc(C(=O)O)cc2)cc1
STUDY_TARGET: Staphylococcus aureus DSM799
DISCRETE_LABEL: Fulfilled

###

MIC, Staphylococcus aureus DSM799: measured values

COMPOUND: COc1cc(/C=C/C(=O)c2ccccc2N)ccc1OCc1ccccc1
MIC [µg/mL]: 0.5

COMPOUND: Nc1ccc(C(=O)/C=C/c2ccc([N+](=O)[O-])cc2)cc1
MIC [µg/mL]: 0.25

COMPOUND: Nc1ccccc1C(=O)/C=C/c1ccccc1
MIC [µg/mL]: 0.25

COMPOUND: CN(C)[C@@H]1C(O)=C(C(N)=O)C(=O)[C@@]2(O)C(O)=C3C(=O)c4c(O)cccc4[C@@](C)(O)[C@H]3[C@H](O)[C@@H]12 [Oxytetracycline, reference compound]
MIC [µg/mL]: 0.125

COMPOUND: Nc1ccccc1C(=O)/C=C/c1ccc(C(=O)O)cc1
MIC [µg/mL]: 0.125

COMPOUND: Nc1cccc(C(=O)/C=C/c2ccc(C(=O)O)cc2)c1
MIC [µg/mL]: 0.125

COMPOUND: Nc1ccccc1C(=O)/C=C/c1ccc(OCc2ccccc2)cc1
MIC [µg/mL]: 0.25

COMPOUND: Nc1cccc(C(=O)/C=C/c2ccc([N+](=O)[O-])cc2)c1
MIC [µg/mL]: 0.25

COMPOUND: Nc1cccc(C(=O)/C=C/c2ccccc2)c1
MIC [µg/mL]: 0.25

COMPOUND: Nc1ccc(C(=O)/C=C/c2ccccc2)cc1
MIC [µg/mL]: 0.25

###

- Test system: Alternaria alternata CBS1526

TEST_SMILES: Nc1ccc(C(=O)/C=C/c2ccccc2)cc1
UNIT_TAG: µg/mL
MIC: 0.5

TEST_SMILES: COc1cc(/C=C/C(=O)c2cccc(N)c2)ccc1OCc1ccccc1
UNIT_TAG: µg/mL
MIC: 1

TEST_SMILES: Nc1ccccc1C(=O)/C=C/c1ccc(C(=O)O)cc1
UNIT_TAG: µg/mL
MIC: 0.5

TEST_SMILES: Nc1ccccc1C(=O)/C=C/c1ccccc1
UNIT_TAG: µg/mL
MIC: 1

TEST_SMILES: Nc1cccc(C(=O)/C=C/c2ccccc2)c1
UNIT_TAG: µg/mL
MIC: 0.5

TEST_SMILES: CCc1ccc(/C=C/C(=O)c2ccc(N)cc2)cc1
UNIT_TAG: µg/mL
MIC: 1
